- test.target: Diaphorase
- experimental.details: peptide array, 1 uM labeled diaphorase, no FAD
endpoint.name: fluorescence
Returns: the value as a bare number; no unit string appended.

Prompt: Would you mind telling me what fluorescence value was observed for `LAKQNRVEDGSG` ?
Response: 770

Prompt: Would you mind telling me what fluorescence value was observed for `VVQALFDGSG` ?
Response: 1470

Prompt: Would you mind telling me what fluorescence value was observed for `VERASYNLDGSG` ?
Response: 759

Prompt: Would you mind telling me what fluorescence value was observed for `EGYANKLLALFSGSG` ?
Response: 1030

Prompt: Would you mind telling me what fluorescence value was observed for `VFGVLSQVARDGSG` ?
Response: 4250

Prompt: Would you mind telling me what fluorescence value was observed for `DLFQLVFSGSG` ?
Response: 5780

Prompt: Would you mind telling me what fluorescence value was observed for `SVLEGYQAVFGGSG` ?
Response: 1340
